// provenance: patent US6756374B2

Reported values of IC50 for individual entries
- SYSTEM NAME: human cyclin D1-CDK4 (Homo sapiens, UniProt P11802)
- Sequence (P11802 whole entry): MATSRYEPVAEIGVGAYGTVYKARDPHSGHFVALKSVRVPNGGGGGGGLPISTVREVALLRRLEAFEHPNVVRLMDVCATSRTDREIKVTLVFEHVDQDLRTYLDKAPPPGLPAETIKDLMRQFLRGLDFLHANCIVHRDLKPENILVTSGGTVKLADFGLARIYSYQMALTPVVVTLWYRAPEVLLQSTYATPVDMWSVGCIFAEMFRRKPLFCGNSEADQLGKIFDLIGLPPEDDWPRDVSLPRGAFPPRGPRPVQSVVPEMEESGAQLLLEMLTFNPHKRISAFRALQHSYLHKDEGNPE
- Sequence (P24385 whole entry partner): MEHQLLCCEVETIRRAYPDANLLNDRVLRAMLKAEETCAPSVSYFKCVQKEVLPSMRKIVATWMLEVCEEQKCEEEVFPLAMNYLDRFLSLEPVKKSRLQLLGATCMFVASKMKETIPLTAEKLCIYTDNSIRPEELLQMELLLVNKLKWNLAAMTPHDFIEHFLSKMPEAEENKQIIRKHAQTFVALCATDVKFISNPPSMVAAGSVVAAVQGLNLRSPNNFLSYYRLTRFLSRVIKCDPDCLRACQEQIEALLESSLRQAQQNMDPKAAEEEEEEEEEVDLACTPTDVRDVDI
- PROTOCOL SUMMARY: FlashPlate kinase assay, cyclin D1-CDK4
- CONDITION LABEL: Rb protein substrate, 1 μM ATP
Numeric answer only, unit nM assumed.

Some entries whose results are on file:
>>> quantitative_result("CN1CCN(c2ccc(Nc3nc(N)c(C(=O)c4cccc([N+](=O)[O-])c4)s3)cc2)CC1")
26
>>> quantitative_result("CN1CCN(c2ccc(Nc3nc(N)c(C(=O)c4ccc(N5CCOCC5)cc4)s3)cc2)CC1")
17
>>> quantitative_result("CC(=O)Nc1ccc(C(=O)c2sc(Nc3ccc(N4CCN(C(C)C)CC4)cc3)nc2N)cc1")
25
>>> quantitative_result("COc1cccc(C(=O)c2sc(Nc3ccc(N4CCN(C)CC4)cc3)nc2N)c1")
25

input: Fill in reported IC50 for this entry: "CC(=O)N1CCN(c2ccc(Nc3nc(N)c(C(=O)c4ccc5c(c4)OCO5)s3)cc2)CC1"
output: 43

input: Fill in reported IC50 for this entry: "Nc1nc(Nc2ccc(N3CCNCC3)cc2)sc1C(=O)c1cccc(F)c1"
output: 13

input: Fill in reported IC50 for this entry: "CN1CCN(c2ccc(Nc3nc(N)c(C(=O)c4ccc5c(c4)OCCO5)s3)cc2)CC1"
output: 20

input: Fill in reported IC50 for this entry: "CN1CCN(c2ccc(Nc3nc(N)c(C(=O)c4ccc(O)cc4)s3)cc2)CC1"
output: 53

----------
- SYSTEM NAME: human cyclin E-CDK2 (Homo sapiens, UniProt P24941)
Binary call on IC50 with cut-off 2 µM: strictly below means YES, and equality or higher means NO.

>>> label("COc1ccc(C(=O)c2sc(Nc3ccc(N4CCN(C)CC4)cc3)nc2N)cc1")
"NO"
>>> label("COCCNc1ccc(C(=O)c2sc(Nc3ccc(N4CCN(C)CC4)cc3)nc2N)cc1[N+](=O)[O-]")
"NO"
>>> label("CN1CCN(c2ccc(Nc3nc(N)c(C(=O)c4ccc(N5CCOCC5)c([N+](=O)[O-])c4)s3)cc2)CC1")
"NO"
>>> label("Nc1nc(Nc2ccc(N3CCN(CCO)CC3)cc2)sc1C(=O)c1cccc(F)c1")
"YES"
>>> label("Nc1nc(Nc2ccc(N3CCN(CCO)CC3)cc2)sc1C(=O)c1ccc2c(c1)OCCO2")
"YES"
>>> label("COc1cccc(C(=O)c2sc(Nc3ccc(N4CCN(C)CC4)cc3)nc2N)c1")
"NO"
>>> label("CN1CCN(c2ccc(Nc3nc(N)c(C(=O)c4ccc(NCCO)c([N+](=O)[O-])c4)s3)cc2)CC1")
"YES"
>>> label("CN1CCN(c2ccc(Nc3nc(N)c(C(=O)c4ccc(N5CCOCC5)cc4)s3)cc2)CC1")
"NO"

input: Given the entry "CN1CCN(c2ccc(Nc3nc(N)c(C(=O)c4ccc5oc6ccccc6c5c4)s3)cc2)CC1" , would its reported IC50 be below 2 µM?
output: NO

input: Given the entry "CCN(CC)c1ccc(C(=O)c2sc(Nc3ccc(N4CCN(C)CC4)cc3)nc2N)cc1" , would its reported IC50 be below 2 µM?
output: NO

input: Given the entry "CC(C)C[C@H](CO)Nc1ccc(C(=O)c2sc(Nc3ccc(N4CCN(C)CC4)cc3)nc2N)cc1N" , would its reported IC50 be below 2 µM?
output: NO

input: Given the entry "CN1CCN(c2ccc(Nc3nc(N)c(C(=O)c4ccc(O)cc4)s3)cc2)CC1" , would its reported IC50 be below 2 µM?
output: NO

input: Given the entry "COc1ccc(C(=O)c2sc(Nc3ccc(N4CCNCC4)cc3)nc2N)cc1F" , would its reported IC50 be below 2 µM?
output: YES

input: Given the entry "Nc1nc(Nc2ccc(N3CCNCC3)cc2)sc1C(=O)c1ccc(N2CCCC2)cc1" , would its reported IC50 be below 2 µM?
output: NO

input: Given the entry "Nc1nc(Nc2ccc(N3CCN(CCO)CC3)cc2)sc1C(=O)c1cc(F)cc(F)c1" , would its reported IC50 be below 2 µM?
output: YES

input: Given the entry "COc1cccc(C(=O)c2sc(Nc3ccc(N4CCN(CCO)CC4)cc3)nc2N)c1" , would its reported IC50 be below 2 µM?
output: YES

input: Given the entry "CN1CCN(c2ccc(Nc3nc(N)c(C(=O)c4ccc5c(c4)OCO5)s3)cc2)CC1" , would its reported IC50 be below 2 µM?
output: NO
